BASOPHIL by entry:
- Species: Rattus norvegicus
- ASSAY_COMMENT: DrugMatrix - Regimen: Daily Repeat
- Type: toxicity, organism-based, Sprague-Dawley
- Parameters: regimen Daily Repeat, gender Male, age 6-8 weeks
- CONDITION_LABEL: in vivo, po, 0 mg/kg, 120 h, tissue Blood, route oral GAVAGE, dose level Control, time 5 day, vehicle .5 % CMC
Enter your answer as a number in %; do not include the unit.

CC(=O)Nc1ccc2c(c1)Cc1ccccc1-2 [2-ACETYLAMINOFLUORENE]
0

GET /values?readout=BASOPHIL&item= NCC(CC(=O)O)c1ccc(Cl)cc1 (stereo not given) [BACLOFEN] 0

Now consider CC(C)Cc1ccc([C@H](C)C(=O)O)cc1 [DEXIBUPROFEN] and answer again. 1.35

###

- Species on record: Rattus norvegicus
- ASSAY_COMMENT: DrugMatrix - Regimen: Daily Repeat
- Format: toxicity, organism-based, Sprague-Dawley
- Parameters: regimen Daily Repeat, gender Male, age 6-8 weeks
- CONDITION_LABEL: in vivo, po, 0 mg/kg, 120 h, tissue Blood, route oral GAVAGE, dose level Control, time 5 day, vehicle 100 % WATER
MEASUREMENT_TYPE: EOSINOPHIL (%)
Use % as the unit, but write only the number.

Take a look at these entries with their results.
C[N+](C)(C)CCOC(N)=O.[Cl-] [CARBACHOL]
0.17
CN1C(=O)OC(C)(C)C1=O [TRIMETHADIONE]
0.2
CCC1(c2ccccc2)C(=O)NC(=O)NC1=O [PHENOBARBITAL]
0.33
Cc1cc(C(C)(C)C)c(O)c(C)c1CC1=NCCN1 [OXYMETAZOLINE]
0.67
Cc1cn([C@H]2C=C[C@@H](CO)O2)c(=O)[nH]c1=O [STAVUDINE]
0.17
NN [HYDRAZINE]
0.17

Quick one: EOSINOPHIL for C1CCN2C[C@@H]3C[C@@H](CN4CCCC[C@@H]34)[C@H]2C1 [SPARTEINE] ? 0.33

Record: CC(Cl)(Cl)Cl [TRICHLOROETHANE] 0.33

What about this molecule? CCN(CC)C(=S)SSC(=S)N(CC)CC 0.17

###

- Species: Rattus norvegicus
- ASSAY_COMMENT: DrugMatrix - Regimen: Daily Repeat
- Assay type: toxicity, organism-based, Sprague-Dawley
- Parameters: regimen Daily Repeat, gender Male, age 6-8 weeks
- CONDITION_LABEL: in vivo, iv, 0 mg/kg, 72 h, tissue Blood, dose level Control, time 3 day, vehicle 100 % SALINE
MEASUREMENT_TYPE: ABSOLUTE SEGMENTED NEUTROPHIL (CELLS/uL)
The response must be a number in CELLS/uL with no trailing unit.

Check out these entries, answers already filled in.
CC(=O)[C@]1(O)Cc2c(O)c3c(c(O)c2[C@@H](O[C@H]2C[C@H](N)[C@H](O)[C@H](C)O2)C1)C(=O)c1ccccc1C3=O [IDARUBICIN]
1220.5
Cc1c(N)nc([C@H](CC(N)=O)NC[C@H](N)C(N)=O)nc1C(=O)N[C@H](C(=O)N[C@H](C)[C@@H](O)[C@H](C)C(=O)N[C@H](C(=O)NCCc1nc(-c2nc(C(=O)NCCC[S+](C)C)cs2)cs1)[C@@H](C)O)[C@@H](O[C@@H]1O[C@@H](CO)[C@@H](O)[C@H](O)[C@@H]1O[C@H]1O[C@H](CO)[C@@H](O)[C@H](OC(N)=O)[C@@H]1O)c1c[nH]cn1.[Br-] [BLEOMYCIN A2]
1282.67
COC(=O)C[C@](O)(CCC(C)(C)O)C(=O)O[C@@H]1C(OC)=C[C@]23CCCN2CCc2cc4c(cc2[C@H]13)OCO4 [HARRINGTONINE]
709.83

From here, focus on the item given below.
Could you tell me which ABSOLUTE SEGMENTED NEUTROPHIL is on file for CO[C@@]12[C@H](COC(N)=O)C3=C(C(=O)C(C)=C(N)C3=O)N1C[C@@H]1N[C@@H]12 [MITOMYCIN] ? 379.5

Provenance of the data: ChEMBL document CHEMBL3885881
